- MEASURED_TARGET: NADPH oxidase 4 (Homo sapiens) (UniProt Q9NPH5)
- Sequence (Q9NPH5 whole entry, looked up): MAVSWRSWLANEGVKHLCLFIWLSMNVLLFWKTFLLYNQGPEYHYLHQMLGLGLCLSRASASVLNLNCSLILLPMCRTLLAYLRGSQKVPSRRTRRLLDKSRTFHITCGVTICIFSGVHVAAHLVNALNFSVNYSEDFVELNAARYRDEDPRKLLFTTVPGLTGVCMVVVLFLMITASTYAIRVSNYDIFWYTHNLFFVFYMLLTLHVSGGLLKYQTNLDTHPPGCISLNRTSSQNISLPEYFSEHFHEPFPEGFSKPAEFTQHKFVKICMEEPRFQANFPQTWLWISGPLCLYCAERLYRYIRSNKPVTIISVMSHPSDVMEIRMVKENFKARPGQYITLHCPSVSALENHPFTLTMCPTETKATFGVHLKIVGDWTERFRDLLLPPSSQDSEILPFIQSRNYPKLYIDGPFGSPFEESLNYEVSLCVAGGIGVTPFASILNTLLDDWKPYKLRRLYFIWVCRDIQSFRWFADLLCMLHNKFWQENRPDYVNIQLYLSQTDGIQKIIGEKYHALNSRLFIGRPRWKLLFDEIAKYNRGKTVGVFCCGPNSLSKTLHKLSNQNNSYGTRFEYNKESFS
- EXPERIMENTAL_PROTOCOL: NOX4-dependent H2O2 signal modulators, primary screen, NOX inhibitor project, cell-based, HEK293-NOX4, tetracycline-induced, Amplex Red fluorescence (AID 1160)
- RECORDED_CONDITIONS: 45 min, higher = more signal, called active from +8 up or from −8 down
Would you kindly list z-score for each of these molecules?
Give bare numbers.

CCOC(=CC(=O)OC)CC(O)c1cccc(Cl)c1 (stereo not given) | -0.513
Cc1ccc(S[C@]2(C(=O)NCC(F)(F)F)CC(=O)N(Cc3ccccc3)[C@@H]2c2ccc(CO)cc2)cc1 | 0.488
CCOC(=O)C[C@H]1[C@H](OC(=O)c2ccccc2-c2ccccc2)[C@@H](NC(=O)c2ccc3ccccc3n2)c2cc(OCCCO)ccc2N1C(=O)c1ccc2ccccc2n1 | 1.07

The following molecules each have a reported value; give each one's z-score.
1. CCOC(=O)C1=CC[C@@H](c2cc(Cl)ccc2Cl)N(S(=O)(=O)c2ccc(C)cc2)[C@H]1c1ccc(OC)cc1
2. COC(=O)[C@@]1(Cc2ccc(F)cc2)[C@H]2c3cc(C(=O)N4CCCC4)n(CCF)c3C[C@H]2CN1C(=O)c1ccccc1
3. CC(=O)NCCCC[C@@H]1NC(=O)[C@@H]2C[C@H](C(=O)O)[C@H](c3ccc(O)cc3)N2C1=O
4. CCCC[C@@H]1C[C@H]1[C@@H](NC(=O)c1cccnc1)c1ccc(-c2ccccc2)cc1
5. C=CC[C@]1(C(=O)N(C)C)N=C(c2ccc(OCCCO)cc2)O[C@H]1c1ccccc1N=[N+]=[N-]

1: -0.51; 2: -0.248; 3: -1.04; 4: -1.52; 5: 1.52

###

- MEASURED_TARGET: Focal adhesion kinase 1 (Homo sapiens)
- EXPERIMENTAL_PROTOCOL: small-molecule microarray binders of FAK, primary screen, biochemical, 635/667 nm fluorescence, BSA, DTT (AID 1130);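 further: composite of spot emission at 667 nm and signal to noise over triplicate slides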
- RECORDED_CONDITIONS: PTK2 binding, 635 nm fluorescence, higher = more signal
Assign y whenever composite z-score does not fall below 0.5; assign n whenever it does.

CC(C)(C)OC(=O)CC[C@]1(C(=O)O)N=C(c2ccc(OCCCO)cc2)O[C@H]1c1ccccc1CN=[N+]=[N-] | n
COc1cc(CO)cc(I)c1O[C@H]1C=C(C(=O)NCCO)C[C@@H](N(Cc2ccc(F)cc2)C(=O)C2CCCO2)[C@@H]1O (some centres undefined) | n
CC(C)C(O)C1C=CC2C(=O)N(C)C(=O)C2N1Nc1ccccc1 (centres undefined) | y
CCOC(=CC(=O)OC)CC(O)c1cccc(Cl)c1 (centres undefined) | y
C=C(/C(=C/C[C@@H](OC(=O)c1ccncc1)c1ccc(OCCO)cc1)c1cc(C(=O)OC)ccc1OC)C(C)C | n
CN1C(=O)C2C(C1=O)C1C=C(c3ccc(CO)cc3)C2C(c2cccs2)N1Cc1cccc(OC(F)(F)F)c1 (centres undefined) | y
O=C(CS)NCCCCCCNC(=O)[C@@H]1C[C@@H]2C(=O)N3CCC[C@H]3C(=O)N2[C@@H]1c1cccc(OCCO)c1 | n
CC=CC(O)C1C=CC2C(=O)N(c3ccccc3)C(=O)C2N1Nc1ccc([N+](=O)[O-])cc1 (centres undefined) | n

Record "NCCCCCNC(=O)[C@@H]1C[C@@H]2C(=O)N[C@@H](CCCCN)C(=O)N2[C@@H]1c1cccc(OCCO)c1" ; criterion: composite z-score no lower than 0.5. Met?
n

###

- MEASURED_TARGET: Alpha-bungarotoxin (Bungarus multicinctus) (UniProt P60615)
- Sequence (P60615 whole entry, looked up): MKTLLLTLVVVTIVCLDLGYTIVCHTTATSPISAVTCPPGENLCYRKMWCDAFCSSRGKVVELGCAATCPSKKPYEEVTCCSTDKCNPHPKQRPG
- EXPERIMENTAL_PROTOCOL: alpha-bungarotoxin binders on microarray, profiling panel, artefact control for SMM control protein annotation, biochemical, small-molecule microarray, Alexa647 label, 635/667 nm fluorescence (AID 1117)
- RECORDED_CONDITIONS: alpha-BTX-A647 binding fluorescence, higher = more signal
VALUE_KIND: composite z-score
Numbers only.

CCOC(=O)[C@H]1C/C=C/C[C@H](C(=O)OCC)C(=O)O[C@H]2[C@@H](OC)O[C@H](CO)[C@@H](OC(=O)CCc3ccccc3)[C@@H]2OC1=O | -0.187

The following compounds each have a reported value; give each one's composite z-score.
1. NC(=O)N1C(=O)C2C(C1=O)C1C=C(CCCO)C2C(c2cccs2)N1Cc1cc2c(cc1Br)OCO2 (stereo not given)
2. C=CCN1C(=O)[C@@]2(O[C@@H](CCn3cc([C@H](O)c4ccccc4)nn3)[C@H]([Si](C)(C)c3ccc(OC)cc3)[C@H]2C)c2ccccc21
3. COc1cc2c(cc1OC)CN(C(=O)[C@H]1[C@@H]3C(=O)O[C@@H](c4ccccc4)[C@@H](c4ccccc4)N3[C@@H](c3ccc(OCCO)cc3)[C@]13C(=O)Nc1ccc(C#CCCO)cc13)CC2
4. C=CCOC(=O)[C@@H]1[C@H]2C(=O)O[C@H](c3ccccc3)[C@H](c3ccccc3)N2[C@H](c2ccc(OCCOC(=O)[C@H]3C[C@H]4C(=O)N[C@@H](CCCCNC(C)=O)C(=O)N4[C@H]3c3cccc(OCCO)c3)cc2)[C@@]12C(=O)Nc1ccc(I)cc12
5. Cc1ccc(S[C@]2(C(=O)NCC(F)(F)F)CC(=O)N(Cc3ccccc3)[C@@H]2c2ccc(CO)cc2)cc1
6. COc1cc2c(cc1O)C(C)N(Cc1cc3c(cc1Br)OCO3)CC2 (stereo not given)
7. C=CCNC(=O)[C@H]1[C@@H]2C(=O)O[C@@H](c3ccccc3)[C@@H](c3ccccc3)N2[C@@H](c2ccccc2OCCO)[C@]12C(=O)N(C(=O)OCCOC)c1ccc(C#CC3=CCCCC3)cc12

1.23
1.21
1.72
1.54
-0.0421
-0.0712
1.4

The following compounds each have a reported value; give each one's composite z-score.
1. COCCOC(=O)N1C(=O)[C@@]2(c3cc(C#Cc4ccc(OC)cc4)ccc31)[C@H](C(=O)N1CCCCCCC1)[C@H]1C(=O)O[C@H](c3ccccc3)[C@H](c3ccccc3)N1[C@@H]2c1ccc(O)cc1
2. COCCCNC(=O)[C@]1(Cc2ccccc2N=[N+]=[N-])N=C(c2ccc(OCCCO)cc2)O[C@@H]1c1ccccc1N=[N+]=[N-]

0.723
0.955

###

Would you kindly list composite z-score for each of these molecules?
- EXPERIMENTAL_PROTOCOL: binders of probe aFGF2 on microarray, primary screen, stem cell growth factor project, biochemical, small-molecule microarray, fluorescence 635/667 (AID 1067);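 further: measures binding of biotinylated aFGF2 protein to printed compounds on slides; z-score merges feature fluorescence and signal-to-noise across triplicate slides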
- RECORDED_CONDITIONS: higher = more signal
One number for each entry.

Here's what some known entries look like.
CC1CC/C=C\[C@H]2OC34C=CCN(C(C)C)C(=O)[C@H]3N(CCCCCO)C(=O)[C@@H]4C2C(=O)O1 (stereo not given in full) | -0.0996
CN(C)CCCCNC(=O)[C@H]1C[C@H]2C(=O)N[C@@H](CCCCN(C)C)C(=O)N2[C@H]1c1cccc(OCCO)c1 | 0.0025
CN1C2C=C(CCCO)C(C3C(=O)N(C(N)=O)C(=O)C32)C1c1cccs1 (stereo not given) | -0.116
COCCCNC(=O)[C@@]1(Sc2ccc(C)cc2)CC(=O)N(Cc2cc(C(F)(F)F)cc(C(F)(F)F)c2)[C@@H]1c1ccc(CO)cc1 | -0.144
[N-]=[N+]=NCc1ccccc1C[C@@]1(C(N)=O)N=C(c2ccc(OCCCO)cc2)O[C@@H]1c1ccccc1CN=[N+]=[N-] | -0.0469
CCCNC(=O)[C@@]1(c2ccc([N+](=O)[O-])cc2)CC(=O)N(C2CCCCC2)[C@@H]1c1ccc(CO)cc1I | 0.091

The following molecules each have a reported value; give each one's composite z-score.
1. COc1ccc(CCNC(=O)[C@@]2(Sc3ccc(C)cc3)CC(=O)N(Cc3cc(C(F)(F)F)cc(C(F)(F)F)c3)[C@@H]2c2ccc(CO)cc2I)cc1
2. COc1cc(CO)cc(I)c1O[C@H]1C=C(C(=O)NCCO)C[C@@H](N(CC2CCCCC2)C(=O)c2ccc(C(F)(F)F)cc2)[C@@H]1O
3. C=CC[C@@H](OC(=O)Nc1ccc(OC)cc1)c1ccc(OCCO)cc1
4. CC[C@H]1C2=C3C(CC[C@H]4C(OCc5ccc(F)cc5C(F)(F)F)OC[C@](C)([C@@H]34)N(C(=O)OC(C)(C)C)C2)C2COC(=O)OCC21 (stereo not given in full)

-0.0894
-0.101
-0.131
0.0246

###

Would you kindly list z-score for each of these molecules?
- EXPERIMENTAL_PROTOCOL: osmotic lysis modulators in infected erythrocytes, primary screen, PSAC antagonist project, cell-based, P. falciparum Indochina, OD700, 3 h (AID 1156)
- RECORDED_CONDITIONS: higher = more signal, called active from +8 up or from −8 down
Numbers only.

COCCOC(=O)N1C(=O)[C@@]2(c3cc(C#CC4(O)CCCCCC4)ccc31)[C@H](C(N)=O)[C@H]1C(=O)O[C@H](c3ccccc3)[C@H](c3ccccc3)N1[C@@H]2c1ccc(O)cc1 | 2.21
CN(C)C(=O)[C@@]1(Cc2ccccc2N=[N+]=[N-])COC(c2ccc(OCCCO)cc2)=N1 | 3.43
C=C(CCCC)/C(=C/C[C@@H](OC(C)=O)c1ccc(CO)o1)c1cc(C(=O)OC)ccc1OC | 1.3
CCCCN1CC=CC23O[C@@H]4C=CCOC(=O)[C@@H]4[C@H]2C(=O)N(C(C)CO)[C@@H]3C1=O (stereo partly drawn) | 0.436
C=C(CCCC)/C(=C/C[C@@H](OC(=O)c1ccncc1)c1cccc(OCCO)c1)c1cnc2ccccc2c1 | 0.902
COc1ccc([Si](C)(C)[C@H]2[C@H](CC(=O)N3Cc4ccccc4C[C@H]3CO)O[C@@]3(C(=O)N(Cc4cccc(N5CCCCC5=O)c4)c4ccccc43)[C@@H]2C)cc1 | 0.357
CC(C)CN1C(=O)[C@@]2(c3ccc([N+](=O)[O-])cc3)CC(=O)N(CC34CC5CC(CC(C5)C3)C4)[C@@H]2c2ccc(CO)cc21 | 0.0846
CC(C)c1ccc(NN2C(C(O)c3ccco3)C=CC3C(=O)N(c4ccccc4)C(=O)C32)cc1 (stereo not drawn) | 0.626
C#CCNC(=O)[C@H](Cc1ccccc1)NC(=O)[C@@H](N=[N+]=[N-])C(C)C | 0.0901
COC(=O)[C@@]1(Cc2ccc(OC)cc2)[C@H]2c3cc(C(=O)N(C)C)n(Cc4ccccc4)c3C[C@H]2CN1C(=O)c1ccccc1 | -1.39

The following molecules each have a reported value; give each one's z-score.
1. CN1C(=O)[C@@]2(CCS(=O)(=O)c3ccccc3)N=C(c3ccc(OCCCO)cc3)O[C@H]2c2ccccc21
2. COC(=O)C1(Cc2ccccc2)C=C2C(=C(C(C)C)C(=O)C2C)CN1 (stereo not drawn)
3. COCCOC(=O)N1C(=O)[C@@]2(c3cc(C#Cc4ccc(OC)cc4)ccc31)[C@H](C(=O)N1CCN(c3ncccn3)CC1)[C@H]1C(=O)O[C@H](c3ccccc3)[C@H](c3ccccc3)N1[C@@H]2c1ccccc1OCCO
4. O=C1NC(=O)C2C1C=CC(C(O)c1cc(C(F)(F)F)cc(C(F)(F)F)c1)N2Nc1ccc(Cl)cc1Cl (stereo not drawn)
5. C=CCOC(=O)[C@@H]1[C@H]2C(=O)O[C@H](c3ccccc3)[C@H](c3ccccc3)N2[C@H](c2ccc(OCCOC(=O)[C@H]3C[C@H]4C(=O)N[C@@H](CC(C)C)C(=O)N4[C@H]3c3ccc(O)cc3)cc2)[C@@]12C(=O)Nc1ccc(I)cc12
6. COCCOC(=O)N1C(=O)[C@@]2(c3cc(C#CC4(O)CCCCCC4)ccc31)[C@H](C(N)=O)[C@H]1C(=O)O[C@H](c3ccccc3)[C@H](c3ccccc3)N1[C@@H]2c1ccccc1OCCO
7. C=CC[C@@H](OC(=O)Nc1ccc(OC)cc1)c1ccc(OCCO)cc1

[0.141, 1.42, 0.641, -1.6, 0.946, 3.54, -0.149]

Entry under review: "O=C1O[C@@H](c2ccccc2)[C@@H](c2ccccc2)N2[C@@H](c3ccc(O)cc3)[C@]3(C(=O)Nc4ccc(C#CCCO)cc43)[C@@H](C(=O)Nc3nc4ccccc4s3)[C@H]12" . Reported z-score?
-0.743
